# EXPERIMENTAL TARGET: T1, Soluble CTLA-4-Ig (human, UniProt P16410 36-161, FITC-conjugated in the two-colour FACS assays; unlabelled and detected with FITC goat anti-human IgG in the concentration-dependent assay)
# T1 construct: extracellular domain; Bought from R&D Systems; also called sCTLA-4-Ig; CTLA-4-Ig Fc; not shown: Fc portion of human IgG1
# T1 sequence (P16410 36-161): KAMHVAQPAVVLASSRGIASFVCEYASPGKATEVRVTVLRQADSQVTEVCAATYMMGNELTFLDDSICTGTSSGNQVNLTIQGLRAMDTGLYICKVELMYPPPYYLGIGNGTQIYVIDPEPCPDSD
# PROCEDURE DETAILS: two-colour FACS profile on transfected cells; score of preference for CTLA-4-Ig over CD28-Ig vs WT hB7-1
Recorded Binding Score, one value per entry.
Field format: numeric only.

The examples below pair each entry with its known result.
Entry Round 2 CTLA4 A-F6-9 (ligand) ITPKSVTKRVKETVMLSCDYSTSTEELTSLRIYWQKDSKMVLAILPGKVQVWPEYKNRTITDMNDNPRIVILALRLSDSGTYTCVIQKPDLKGAYKLEHLTSVRLMIRADFPVPTINDLGNPSPNIRRLICSTSGGFPRPHLYWLENGEELNATNTTLSQDPETKLYMISSELDFNMTSNHSFLCLVKYGDLTVSQTFYWQESKPTPSANQHLTWTIIIPVSAFGISVIIAVILTCLTCRNAAIRRQRRENEVEMQSCSQSP has what Binding Score? 1

I would be grateful if you could share the reported Binding Score for Round 2 CTLA4 A-B4-6 (ligand) ITPKSVTKRVKETVMLSCDYNTSTEELTSLRIYWQKDSKMVLAILPGKVQVWPEYKNRTITDMNDNPRIVILALRLSDKGTYTCVVQKNENGSFRREHLTSVTLSIRADFPVPTINDLGNPSPNIRRLICSTSGGFPRPHLYWLENGEELNATNTTLSQDPETKLYMISSELDFNMTSNHSFLCLVKYGDLTVSQTFYWQESKPTPSANQHLTWTIIIPVSAFGISVIIAVILTCLTCRNAAIRRQRRENEVEMQSCSQSP . 1

Further cases:
Reported Binding Score, binder Round 2 CTLA4BP-5x3-6f (ligand) VIHVTKEVKEVATLSCGHNVSVEELAQTRIYWQKGKKMVLTMMSGDMNIWPEYKNRTIFDITNNLSIVILALRPSDEGTYECVVLEYEKDAFKREHLAEVMLSVKADFPTPSISDFEIPTSNIRRIICSTSGGFPEPHLSWLENGEELNAINTTASQDPETELYTVSSKLDFNMTTNHSFMCLIKYGHLRVNQTFNWNTPKQEHFPDNLLPSWAITLISANGIFVICCLAYCFAPGCRERKSNERLRRESVRPV : ____ 2

Data provenance: patent US20050154189A1
